system-name: Sodium-dependent dopamine transporter (Homo sapiens)
Sequence (Q01959 whole entry): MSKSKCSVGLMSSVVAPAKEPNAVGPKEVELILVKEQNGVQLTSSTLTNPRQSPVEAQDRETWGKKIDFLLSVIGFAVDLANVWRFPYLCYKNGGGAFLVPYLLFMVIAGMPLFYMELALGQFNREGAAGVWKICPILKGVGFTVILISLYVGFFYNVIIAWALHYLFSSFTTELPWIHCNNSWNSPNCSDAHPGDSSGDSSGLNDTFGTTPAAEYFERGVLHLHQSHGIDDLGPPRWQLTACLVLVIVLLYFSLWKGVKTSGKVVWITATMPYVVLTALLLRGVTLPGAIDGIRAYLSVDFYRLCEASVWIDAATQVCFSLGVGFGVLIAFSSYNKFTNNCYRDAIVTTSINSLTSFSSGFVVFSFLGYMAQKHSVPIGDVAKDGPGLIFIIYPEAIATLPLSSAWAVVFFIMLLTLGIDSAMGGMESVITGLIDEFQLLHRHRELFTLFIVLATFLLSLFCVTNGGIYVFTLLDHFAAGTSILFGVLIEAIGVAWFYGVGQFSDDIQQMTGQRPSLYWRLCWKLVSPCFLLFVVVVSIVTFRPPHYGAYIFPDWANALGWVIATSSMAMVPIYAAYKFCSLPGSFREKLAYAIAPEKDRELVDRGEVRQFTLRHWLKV
test-name: Displacement of [3H]-WIN35428 from recombinant human DAT expressed in HEK cell membranes after 90 mins by scintillation counting method
measured-quantity: pKi
Answers are plain numbers, as −log10 of the molar value.

Summary for this compound, CCCCCCCCCCC[C@@H]1CCN[C@H](C(=O)NCC(O)CO)C1 (stereo partly specified) : pKi is 5.74

###

system-name: D(3) dopamine receptor (Homo sapiens, UniProt P35462)
Sequence (P35462 as listed by the source): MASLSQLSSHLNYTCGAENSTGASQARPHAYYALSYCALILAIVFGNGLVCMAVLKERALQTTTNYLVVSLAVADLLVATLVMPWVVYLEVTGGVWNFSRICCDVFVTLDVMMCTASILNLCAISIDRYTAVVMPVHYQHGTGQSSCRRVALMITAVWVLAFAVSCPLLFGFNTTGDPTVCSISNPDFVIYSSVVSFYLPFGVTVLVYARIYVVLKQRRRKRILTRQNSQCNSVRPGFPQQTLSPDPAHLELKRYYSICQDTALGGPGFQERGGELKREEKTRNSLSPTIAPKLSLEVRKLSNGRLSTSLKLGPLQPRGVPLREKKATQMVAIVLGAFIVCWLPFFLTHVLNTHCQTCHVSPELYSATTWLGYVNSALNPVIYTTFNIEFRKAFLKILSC
test-name: Displacement of [3H]-N-methylspiperone from recombinant human D3R expressed in HEK cell membranes after 90 mins by scintillation counting method
measured-quantity: pKi
Answers are plain numbers, as −log10 of the molar value.

In plain terms, CCCCCCCCCCC[C@@H]1CCN[C@H](C(=O)NCC(O)CO)C1 (stereo partly specified) has a documented pKi of 5.33
